Test system: Staphylococcus aureus
Assay: Antibacterial activity against Staphylococcus aureus 1199B overexpressing NorA efflux pump after 18 hrs by MTT assay
Type: functional
measure.name: MIC (µg/mL)
The reply should contain only the number, in µg/mL.

Summary line: CC(C)[C@@H]1C[C@H](OO)C=C2[C@@H]3[C@](C)(O)[C@@H](O)C[C@H](Br)[C@@]3(C)CC[C@@]21CBr , Staphylococcus aureus, reported MIC = 16

For the next question, use this molecule.
Entry CC(C)[C@@H]1CC[C@H](O)[C@H]2[C@H]3[C@@](C)(C=CC(=O)[C@]3(C)O)CC[C@@]21CBr : MIC on Staphylococcus aureus = 0.5

----------
Form field: MIC (one value per entry).
Tested on: Staphylococcus aureus
Experiment: Antibacterial activity against Staphylococcus aureus 1199B overexpressing NorA efflux pump after 18 hrs by MTT assay
Type: functional
Reply numerically in µg/mL, unit not repeated.

# lookup: CC(C)[C@@H]1CC[C@H](O)[C@H]2[C@H]3[C@](C)(CC[C@@]21CBr)[C@@H](Br)CC[C@]3(C)O on Staphylococcus aureus, MIC = 1

Value sought: MIC, system Staphylococcus aureus, item CCn1cc(C(=O)O)c(=O)c2cc(F)c(N3CCNCC3)cc21 . Result: 32

Further cases:
Known value: Staphylococcus aureus MIC of the molecule CC(C)[C@@H]1CC[C@H](O)[C@H]2[C@H]3[C@](C)(CC[C@@]21CBr)[C@@H](Br)CC(=O)[C@]3(C)O equals 32

Lab entry: Staphylococcus aureus assay, molecule CC(C)[C@@H]1C[C@H](O)C=C2[C@H]3[C@](C)(CC[C@@]21CBr)[C@@H](Br)CC[C@@]3(C)O , MIC = 16

Reported MIC (Staphylococcus aureus) for entry CC(C)[C@@H]1C[C@H](OO)C=C2[C@@H]3[C@](C)(O)[C@H](O)C[C@H](Br)[C@@]3(C)CC[C@@]21CBr is 16
